Data credit: ChEMBL document CHEMBL5257152

Assignment: determine reported selectivity ratio for the given compounds.
# assayDetails: Selectivity index, ratio of IC50 for mouse 3T3 cells to IC50 for human MCF7 cells
# Type: toxicity
# experimentalSetup: 3T3 cells and MCF7 cells, read-out: Ratio IC50
Give bare numbers.

Cc1cc(=O)oc2cc(O)ccc12 = 0.438
Cc1cc(=O)oc2cc(OCCn3cc(CCN4C(=O)c5ccccc5C4=O)nn3)ccc12 = 0.233
Cc1cc(=O)oc2cc(OCCn3cc(-c4ccccc4)nn3)ccc12 = 0.845

Enquiry: // Input: Cc1cc(=O)oc2cc(OCCn3cc(CO)nn3)ccc12 . Output its selectivity ratio only.
Return: 0.516
